These data points were gathered from patent US20250235533A1.

Assay: Solubility / encapsulation of immunoadjuvant in PLGA-PEG-PLGA micelles
Format: physicochemical
Settings: PLGA1.5k-PEG1.5k-PLGA1.5k micelles (hydrogel solution), aqueous with cosolvent or surfactant or cyclodextrin, thermodynamic from solid; in PLGA1.5k-PEG1.5k-PLGA1.5k micelles; read-out: concentration uniformly solubilized
readout label: solubility at 2 days

Query: Respond only with solubility at 2 days recorded for `CC(C)Cn1cnc2c(N)nc3ccccc3c21`
Result: ~6000 µg/mL
